Hey, just so you know, these numbers are from ChEMBL document CHEMBL1671716.

tested on: Bifidobacterium sp.; experiment: Antimicrobial activity against Bifidobacterium sp. assessed as percent resistant isolates after 48 hrs by agar dilution method; type: functional
VALUE_KIND: Activity (%)
Numbers only, in %.

Here is how some compounds turned out for Activity.
COMPOUND	Activity / %
COc1c(N2C[C@@H]3CCCN[C@@H]3C2)c(F)cc2c(=O)c(C(=O)O)cn(C3CC3)c12	0
CCN1CCN(C(=O)N[C@@H](C(=O)N[C@@H]2C(=O)N3[C@@H]2SC(C)(C)[C@@H]3C(=O)O)c2ccccc2)C(=O)C1=O	0
C[C@@H](O)[C@H]1C(=O)N2C(C(=O)O)=C(SCCNC=N)C[C@H]12 [IMIPENEM ANHYDROUS]	0
CCC[C@@H]1C[C@@H](C(=O)N[C@@H]([C@H]2O[C@H](SC)[C@H](O)[C@@H](O)[C@H]2O)[C@H](C)Cl)N(C)C1	15
CO[C@@]1(NC(=O)C2SC(=C(C(N)=O)C(=O)O)S2)C(=O)N2C(C(=O)O)=C(CSc3nnnn3C)CS[C@@H]21 (stereo partly drawn)	15
CO[C@@]1(NC(=O)Cc2cccs2)C(=O)N2C(C(=O)O)=C(COC(N)=O)CS[C@@H]21	0
O=C(N[C@H](CO)[C@H](O)c1ccc([N+](=O)[O-])cc1)C(Cl)Cl	0

# Activity lookup, item C[C@@H](O)[C@H]1C(=O)N2C(C(=O)O)=C(S[C@@H]3CN[C@H](C(=O)N(C)C)C3)[C@H](C)[C@H]12 8
